List of CC50 values.
- TEST DETAILS: Cytotoxic activity against mock-infected human MT4 cellls assessed as reduction in cell viability by MTT assay
- Assay type: cell-based
- CONDITIONS USED: mock-infected MT4 cells
READOUT: CC50 (µM)

* O=c1c2cc(Br)ccc2n(Cc2cn(Cc3cccc(F)c3)nn2)c(=O)n1O | 24.9
* O=c1c2cc(Br)ccc2n(Cc2cn(Cc3ccc(Br)cc3)nn2)c(=O)n1O | 21.8
* COc1cc2c(cc1Cc1cccc(Cl)c1F)c(=O)c(C(=O)O)cn2[C@H](CO)C(C)C | 6.3
* Cc1ccc(Cn2cc(-c3ccccc3Nc3nc(=O)n(O)c4ncccc34)nn2)cc1 | 1.1
* O=c1nc(Nc2ccccc2-c2cn(Cc3ccc(F)cc3)nn2)c2cccnc2n1O | 2.7
* O=c1nc(Nc2cccc(-c3cn(CCCc4ccccc4)nn3)c2)c2cccnc2n1O | 239
* O=c1c2cc(Br)ccc2n(Cc2cn(Cc3ccc(F)cc3)nn2)c(=O)n1O | 25.1
* O=c1c2cc(Br)ccc2n(Cc2cn(Cc3ccc(F)c(F)c3)nn2)c(=O)n1O | 24.7

###

- Test system: Human immunodeficiency virus 2
- TEST DETAILS: Antiviral activity against HIV2 ROD […] infected in human MT4 cells assessed as inhibition of viral-induced cytopathic effect by MTT assay
- Type: functional, organism-based, ISOLATE ROD
pEC50: −log10 of the molar value.
READOUT: pEC50

- Cc1nnc(C(=O)NC(C)(C)c2nc(C(=O)NCc3ccc(F)cc3)c(O)c(=O)n2C)o1 [RALTEGRAVIR POTASSIUM]: 7.80

###

- System: MT4
- TEST DETAILS: Cytotoxic activity against mock-infected human MT4 cellls assessed as reduction in cell viability by MTT assay
- Format: cell-based
- CONDITIONS USED: mt4
READOUT: CC50

* Cc1nnc(C(=O)NC(C)(C)c2nc(C(=O)NCc3ccc(F)cc3)c(O)c(=O)n2C)o1 | > 51.8 µM

###

- TEST DETAILS: Selectivity index, ratio of CC50 for cytotoxic activity against mock-infected human MT4 cells to EC50 for antiviral activity against HIV1 3B infected in human MT4 cells
- Assay type: toxicity, cell-based
- CONDITIONS USED: mock-infected (CC50) and HIV1 3B infected (EC50)
The compounds listed here are annotated with their selectivity ratio.
READOUT: selectivity ratio

- O=c1c2cc(Br)ccc2n(Cc2cn(Cc3ccccc3)nn2)c(=O)n1O: < 1
- O=c1c2cc(Br)ccc2n(Cc2cn(Cc3ccc(F)c(F)c3)nn2)c(=O)n1O: < 1
- Cc1ccccc1Cn1cc(Cn2c(=O)n(O)c(=O)c3cc(Br)ccc32)nn1: < 1
- O=c1nc(Nc2cccc(-c3cn(CCCc4ccccc4)nn3)c2)c2cccnc2n1O: 9
- Cc1ccc(Cn2cc(-c3ccccc3Nc3nc(=O)n(O)c4ncccc34)nn2)cc1: < 1
- O=c1c2cc(Br)ccc2n(Cc2cn(Cc3ccccc3Cl)nn2)c(=O)n1O: < 1
- O=c1nc(Nc2cccc(-c3cn(-c4cccc5ccccc45)nn3)c2)c2cccnc2n1O: > 10
- O=c1c2cc(Br)ccc2n(Cc2cn(Cc3ccc([N+](=O)[O-])cc3)nn2)c(=O)n1O: < 1
- O=C(Cn1cc(-c2cccc(Nc3nc(=O)n(O)c4ncccc34)c2)nn1)Nc1ccc(F)cc1: > 1
- O=C(Cn1cc(-c2cccc(Nc3nc(=O)n(O)c4ncccc34)c2)nn1)Nc1ccccc1: > 10
- O=c1c2cc(Br)ccc2n(Cc2cn(Cc3ccc(Cl)cc3)nn2)c(=O)n1O: < 1
- O=C(Cn1cc(-c2cccc(Nc3nc(=O)n(O)c4ncccc34)c2)nn1)Nc1ccc(C(F)(F)F)cc1: 1
- O=c1c2cc(Br)ccc2n(Cc2cn(Cc3ccc(F)cc3)nn2)c(=O)n1O: < 1
- O=c1nc(Nc2ccccc2-c2cn(Cc3ccc(F)cc3)nn2)c2cccnc2n1O: < 1
- O=c1c2cc(Br)ccc2n(Cc2cn(Cc3cccc(F)c3)nn2)c(=O)n1O: < 1
- O=c1nc(Nc2cccc(-c3cn(CCc4ccccc4)nn3)c2)c2cccnc2n1O: > 31
- O=c1nc(Nc2cccc(-c3cn(Cc4ccc(F)cc4)nn3)c2)c2cccnc2n1O: > 318
- O=c1c2cc(Br)ccc2n(Cc2cn(Cc3ccc(Br)cc3)nn2)c(=O)n1O: < 1
- Cc1cccc(Cn2cc(Cn3c(=O)n(O)c(=O)c4cc(Br)ccc43)nn2)c1: < 1
- O=C(Cn1cc(-c2cccc(Nc3nc(=O)n(O)c4ncccc34)c2)nn1)c1ccc(F)cc1: > 91

###

- TEST DETAILS: Cytotoxic activity against mock-infected human MT4 cellls assessed as reduction in cell viability by MTT assay
- Assay type: cell-based
- CONDITIONS USED: mock-infected MT4 cells
READOUT: CC50

• O=c1c2cc(Br)ccc2n(Cc2cn(Cc3ccccc3Cl)nn2)c(=O)n1O = 22.3 µM
• O=c1c2cc(Br)ccc2n(Cc2cn(Cc3ccc(Cl)cc3)nn2)c(=O)n1O = 24.1 µM
• O=c1nc(Nc2cccc(-c3cn(Cc4ccc(F)cc4)nn3)c2)c2cccnc2n1O = > 291 µM
• O=C(Cn1cc(-c2cccc(Nc3nc(=O)n(O)c4ncccc34)c2)nn1)Nc1ccccc1 = > 275 µM
• O=c1c2cc(Br)ccc2n(Cc2cn(Cc3ccc([N+](=O)[O-])cc3)nn2)c(=O)n1O = 22.4 µM
• O=c1nc(Nc2cccc(-c3cn(-c4cccc5ccccc45)nn3)c2)c2cccnc2n1O = > 279 µM
• O=C(Cn1cc(-c2cccc(Nc3nc(=O)n(O)c4ncccc34)c2)nn1)c1ccc(F)cc1 = > 273 µM
• Cc1ccccc1Cn1cc(Cn2c(=O)n(O)c(=O)c3cc(Br)ccc32)nn1 = 17.8 µM
• Cc1cccc(Cn2cc(Cn3c(=O)n(O)c(=O)c4cc(Br)ccc43)nn2)c1 = 24 µM
• O=c1c2cc(Br)ccc2n(Cc2cn(Cc3ccccc3)nn2)c(=O)n1O = 23.7 µM

###

- TEST DETAILS: Selectivity index, ratio of CC50 for cytotoxic activity against mock-infected human MT4 cells to EC50 for antiviral activity against HIV2 ROD […] infected in human MT4 cells
- Type: toxicity, cell-based
- CONDITIONS USED: mock-infected (CC50) and HIV2 ROD infected (EC50)
Listed molecules paired with reported selectivity ratio
READOUT: selectivity ratio

• O=c1c2cc(Br)ccc2n(Cc2cn(Cc3ccc(F)c(F)c3)nn2)c(=O)n1O = < 1
• Cc1ccccc1Cn1cc(Cn2c(=O)n(O)c(=O)c3cc(Br)ccc32)nn1 = < 1
• O=c1c2cc(Br)ccc2n(Cc2cn(Cc3ccccc3Cl)nn2)c(=O)n1O = < 1
• O=c1nc(Nc2cccc(-c3cn(Cc4ccc(F)cc4)nn3)c2)c2cccnc2n1O = > 103
• O=c1nc(Nc2cccc(-c3cn(CCCc4ccccc4)nn3)c2)c2cccnc2n1O = < 1
• O=c1c2cc(Br)ccc2n(Cc2cn(Cc3ccc(Cl)cc3)nn2)c(=O)n1O = < 1
• Cc1cccc(Cn2cc(Cn3c(=O)n(O)c(=O)c4cc(Br)ccc43)nn2)c1 = < 1
• Cc1ccc(Cn2cc(-c3ccccc3Nc3nc(=O)n(O)c4ncccc34)nn2)cc1 = < 1
• O=c1nc(Nc2cccc(-c3cn(-c4cccc5ccccc45)nn3)c2)c2cccnc2n1O = > 4
• O=c1nc(Nc2ccccc2-c2cn(Cc3ccc(F)cc3)nn2)c2cccnc2n1O = < 1

###

- TEST DETAILS: Cytotoxic activity against mock-infected human MT4 cellls assessed as reduction in cell viability by MTT assay
- Format: cell-based
- CONDITIONS USED: mock-infected MT4 cells
READOUT: CC50

* Cc1nnc(C(=O)NC(C)(C)c2nc(C(=O)NCc3ccc(F)cc3)c(O)c(=O)n2C)o1 | > 55.8 µM
* O=c1nc(Nc2cccc(-c3cn(CCc4ccccc4)nn3)c2)c2cccnc2n1O | > 294 µM
* O=C(Cn1cc(-c2cccc(Nc3nc(=O)n(O)c4ncccc34)c2)nn1)Nc1ccc(F)cc1 | > 265 µM
* O=C(Cn1cc(-c2cccc(Nc3nc(=O)n(O)c4ncccc34)c2)nn1)Nc1ccc(C(F)(F)F)cc1 | > 239 µM
